FYI, the data here is from patent US20230192705A1.

Below is a list of entries, each paired with its recorded IC50 value.
- study-system: SHP2 (Homo sapiens, UniProt Q06124)
- Sequence (Q06124 whole entry): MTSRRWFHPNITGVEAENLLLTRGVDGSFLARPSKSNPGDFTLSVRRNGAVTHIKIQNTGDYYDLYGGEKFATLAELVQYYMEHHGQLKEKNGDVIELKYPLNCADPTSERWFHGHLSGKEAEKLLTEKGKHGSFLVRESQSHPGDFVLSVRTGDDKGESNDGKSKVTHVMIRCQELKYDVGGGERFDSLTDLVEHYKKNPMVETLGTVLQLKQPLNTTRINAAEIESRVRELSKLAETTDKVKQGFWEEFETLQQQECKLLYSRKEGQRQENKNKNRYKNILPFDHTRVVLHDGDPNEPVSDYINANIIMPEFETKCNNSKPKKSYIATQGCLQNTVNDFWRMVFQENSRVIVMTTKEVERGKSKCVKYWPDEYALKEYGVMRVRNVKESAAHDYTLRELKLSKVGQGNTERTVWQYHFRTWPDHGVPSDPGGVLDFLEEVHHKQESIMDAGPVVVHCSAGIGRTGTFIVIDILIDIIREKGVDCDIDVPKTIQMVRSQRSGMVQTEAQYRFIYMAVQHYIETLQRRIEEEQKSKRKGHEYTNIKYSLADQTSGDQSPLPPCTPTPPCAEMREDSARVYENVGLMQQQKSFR
- experimental-protocol: SHP2 allosteric inhibitor enzyme activity assay (DiFMUP fluorescence)
- Type: biochemical
- condition-parameters: class symbols

Observe how each entry below is paired with its result.
test-smiles | IC50
Cc1ccccc1C1(c2n[nH]c3nc(N4CCC5(CC4)CO[C@@H](C)[C@H]5N)[nH]c(=O)c23)CC1 | 20 to 60 nM
Cc1cccc(C2(c3n[nH]c4nc(N5CCC6(CC5)CO[C@@H](C)[C@H]6N)[nH]c(=O)c34)CC2)n1 | > 60 nM

Requested read-out: IC50. Entry: "N[C@@H]1COCC12CCN(c1nc3[nH]nc(C4(c5nc6ccccc6[nH]5)CC4)c3c(=O)[nH]1)CC2"
> 60 nM

And then "COc1nccc(C2(c3n[nH]c4nc(N5CCC6(CC5)Cc5ccccc5[C@H]6N)[nH]c(=O)c34)CC2)c1Cl" , what is it?
≤ 20 nM

Follow-up item: "N[C@@H]1c2ccccc2CC12CCN(c1nc3[nH]nc(C4(c5cnnc(Cl)c5)CC4)c3c(=O)[nH]1)CC2"
≤ 20 nM

What do you get for "C[C@@H]1OCC2(CCN(c3ncc(C4(c5ccccc5)CC4)c(=O)[nH]3)CC2)[C@@H]1N" ?
> 60 nM

Again, but for "N[C@@H]1c2ccccc2CC12CCN(c1nc3[nH]nc(C4=CCOc5cc(Cl)ccc54)c3c(=O)[nH]1)CC2"
≤ 20 nM

Next molecule up: "C[C@@H]1OCC2(CCN(c3nc4[nH]nc(C5(c6cccc(-n7cccn7)c6)CC5)c4c(=O)[nH]3)CC2)[C@@H]1N"
> 60 nM

// repeat for "N[C@@H]1c2ccccc2CC12CCN(c1nc3[nH]nc(C4(c5cccc(-c6ccccc6)c5)CC4)c3c(=O)[nH]1)CC2" and report
≤ 20 nM

Same read-out for "CC1(C)C=C(c2n[nH]c3nc(N4CCC5(CC4)Cc4ccccc4[C@H]5N)[nH]c(=O)c23)c2ccc(Cl)nc2C1" ?
≤ 20 nM
